Biological target: Recombinant human FAP (R&D systems, #3715-SE) (human, UniProt Q12884 26-760)
Sequence (Q12884 26-760 limits assumed): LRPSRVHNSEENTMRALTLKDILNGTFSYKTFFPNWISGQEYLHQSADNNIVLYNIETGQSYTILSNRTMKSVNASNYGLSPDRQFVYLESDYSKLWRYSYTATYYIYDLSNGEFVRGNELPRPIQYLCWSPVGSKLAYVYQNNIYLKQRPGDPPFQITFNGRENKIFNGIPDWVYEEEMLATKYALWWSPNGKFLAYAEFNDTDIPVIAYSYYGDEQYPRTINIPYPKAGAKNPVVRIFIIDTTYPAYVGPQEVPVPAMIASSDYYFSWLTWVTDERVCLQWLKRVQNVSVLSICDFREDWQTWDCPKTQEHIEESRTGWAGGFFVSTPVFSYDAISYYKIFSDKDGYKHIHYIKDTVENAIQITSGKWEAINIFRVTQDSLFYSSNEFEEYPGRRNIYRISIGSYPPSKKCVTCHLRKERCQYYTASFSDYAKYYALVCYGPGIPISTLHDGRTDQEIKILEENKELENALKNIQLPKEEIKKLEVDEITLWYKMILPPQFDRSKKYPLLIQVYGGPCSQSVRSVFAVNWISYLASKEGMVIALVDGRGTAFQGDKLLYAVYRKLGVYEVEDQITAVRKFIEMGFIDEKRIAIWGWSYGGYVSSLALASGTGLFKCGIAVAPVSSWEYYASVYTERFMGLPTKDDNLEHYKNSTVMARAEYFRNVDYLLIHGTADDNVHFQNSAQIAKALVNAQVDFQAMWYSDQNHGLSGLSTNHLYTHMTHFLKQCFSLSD
Experiment: cell-based or functional assay
Numbered stars: 1 amine (or outer) side, 2 acyl side, 3 side chain; on linkers, the order of the positions; unused ones are H or OH. Bridge positions count the residues as written; N and C are the ends. Square brackets hold non-standard residues; d marks the D form. Primed or numbered codes have the meaning given here. * marks the point of attachment. Ttds″ = 1,13-diamino-4,7,10-trioxatridecan-succinamic acid spacer, O=C(CCC(=O)[*:2])NCCCOCCOCCOCCCN[*:1]; TBMB(SCH2CH2NH-DOTA) = O=C(O)CN1CCN(CC(=O)O)CCN(CC(=O)NCCSCc2cc(C[*:1])cc(C[*:2])c2)CCN(CC(=O)O)CC1; DOTA = O=C(O)CN1CCN(CC(=O)O)CCN(CC(=O)*)CCN(CC(=O)O)CC1; mXylylene = c1cc(C[*:1])cc(C[*:2])c1; Hexanoyl = CCCCCC(=O)*
List of pIC50 Category (Activity) values.

Consider the following illustrative entries.
Query :: // pIC50 Category (Activity) lookup, key: Ac-MCPPTEFCDHF[dR]D-NH2 (linker 2-8 via mXylylene; SMILES CSCC[C@H](NC(C)=O)C(=O)N[C@H]1CSCc2cccc(c2)CSC[C@@H](C(=O)N[C@@H](CC(=O)O)C(=O)N[C@@H](Cc2c[nH]cn2)C(=O)N[C@@H](Cc2ccccc2)C(=O)N[C@H](CCCNC(=N)N)C(=O)N[C@@H](CC(=O)O)C(N)=O)NC(=O)[C@H](Cc2ccccc2)NC(=O)[C@H](CCC(=O)O)NC(=O)[C@H]([C@@H](C)O)NC(=O)[C@@H]2CCCN2C(=O)[C@@H]2CCCN2C1=O, also called 3BP-3212) [Ac-Met-[Cys(3MeBn)-Pro-Pro-Thr-Glu-Phe-Cys]-Asp-His-Phe-arg-Asp-NH2]
Result :: > 8 pIC50

Query :: // pIC50 Category (Activity) lookup, key: Hexanoyl-CPPTEFCD[Ttds″]K(DOTA)-NH2 (linker 1-7 via mXylylene; SMILES CCCCCC(=O)N[C@H]1CSCc2cccc(c2)CSC[C@@H](C(=O)N[C@@H](CC(=O)O)C(=O)NCCCOCCOCCOCCCNC(=O)CCC(=O)N[C@@H](CCCCNC(=O)CN2CCN(CC(=O)O)CCN(CC(=O)O)CCN(CC(=O)O)CC2)C(N)=O)NC(=O)[C@H](Cc2ccccc2)NC(=O)[C@H](CCC(=O)O)NC(=O)[C@H]([C@@H](C)O)NC(=O)[C@@H]2CCCN2C(=O)[C@@H]2CCCN2C1=O, also called 3BP-3396) [Hex-[Cys(3MeBn)-Pro-Pro-Thr-Glu-Phe-Cys]-Asp-Ttds-Lys(DOTA)-NH2]
Result :: > 8 pIC50

Query :: // pIC50 Category (Activity) lookup, key: Hexanoyl-CPPTEFC-NH2 (linker 1-7 via TBMB(SCH2CH2NH-DOTA); SMILES CCCCCC(=O)N[C@H]1CSCc2cc(CSCCNC(=O)CN3CCN(CC(=O)O)CCN(CC(=O)O)CCN(CC(=O)O)CC3)cc(c2)CSC[C@@H](C(N)=O)NC(=O)[C@H](Cc2ccccc2)NC(=O)[C@H](CCC(=O)O)NC(=O)[C@H]([C@@H](C)O)NC(=O)[C@@H]2CCCN2C(=O)[C@@H]2CCCN2C1=O, also called 3BP-3653) [Hex-[Cys(tMeBn(DOTA-AET))-Pro-Pro-Thr-Glu-Phe-Cys]-NH2]
Result :: > 8 pIC50

// moving on: another record for pIC50 Category (Activity)
Query :: // pIC50 Category (Activity) lookup, key: Hexanoyl-CPPTQFCD-OH (linker 1-7 via TBMB(SCH2CH2NH-DOTA); SMILES CCCCCC(=O)N[C@H]1CSCc2cc(CSCCNC(=O)CN3CCN(CC(=O)O)CCN(CC(=O)O)CCN(CC(=O)O)CC3)cc(c2)CSC[C@@H](C(=O)N[C@@H](CC(=O)O)C(=O)O)NC(=O)[C@H](Cc2ccccc2)NC(=O)[C@H](CCC(N)=O)NC(=O)[C@H]([C@@H](C)O)NC(=O)[C@@H]2CCCN2C(=O)[C@@H]2CCCN2C1=O, also called 3BP-3665) [Hex-[Cys(tMeBn(DOTA-AET))-Pro-Pro-Thr-Gln-Phe-Cys]-Asp-OH]
Result :: > 8 pIC50
